- assay_text: Cytotoxicity against human HTR-8/SVneo cells assessed as cell viability at 0.5 ug/ml by CCK-8 assay relative to control
- Format: toxicity, cell-based
- settings: at 0.5 µg/mL, read-out: Activity
readout_kind: viability at 0.5 ug/ml

Can you look up the measured viability at 0.5 ug/ml of Cc1c2c(cc[n+]1C)c1ccccc1n2CCCCCCCCn1c2ccccc2c2cc[n+](C)c(C)c21.[I-].[I-] for me?
110%

###

- Test system: Staphylococcus aureus
- assay_text: Antibacterial activity against methicillin-resistant Staphylococcus aureus CGMCC 1.12409 incubated for 18 hrs by two fold serial broth dilution method
- Type: functional
readout_kind: MIC

Consider the worked cases shown below.
Cc1nccc2c3ccccc3n(CCCCn3c4ccccc4c4ccnc(C)c43)c12: > 128 µg/mL
Cc1c2[nH]c3ccccc3c2cc[n+]1C.[I-]: > 128 µg/mL
Cc1c2c(cc[n+]1C)c1ccccc1n2CCCCCCCCn1c2ccccc2c2cc[n+](C)c(C)c21.[I-].[I-]: 1 µg/mL
Cc1nccc2c3ccccc3n(CCN(C)C)c12: > 128 µg/mL
[2H]C([2H])([2H])[n+]1ccc2c3ccccc3n(CC[N+](C)(C)C([2H])([2H])[2H])c2c1C.[I-].[I-]: > 128 µg/mL
CCCC[n+]1ccc2c3ccccc3n(CCN(C)C)c2c1C.[Br-]: > 128 µg/mL
CCC[n+]1ccc2c3ccccc3n(CCN(CC)CC)c2c1C.[Br-]: > 128 µg/mL
[2H]C([2H])([2H])[n+]1ccc2c([nH]c3ccccc32)c1C.[I-]: > 128 µg/mL
Cc1c2c(cc[n+]1C)c1ccccc1n2CCCCCCCn1c2ccccc2c2cc[n+](C)c(C)c21.[I-].[I-]: 1 µg/mL
[2H]C([2H])([2H])[n+]1ccc2c3ccccc3n(CC[N+](CC)(CC)C([2H])([2H])[2H])c2c1C.[I-].[I-]: > 128 µg/mL

Recorded MIC for CC[N+](C)(CC)CCn1c2ccccc2c2cc[n+](C)c(C)c21.[I-].[I-] , please?
> 128 µg/mL

Quick one: MIC of Cc1nccc2c3ccccc3n(CCCCCCCCn3c4ccccc4c4ccnc(C)c43)c12 ?
> 128 µg/mL

Returns the measured MIC for the input compound. Input: CCCCC[n+]1ccc2c3ccccc3n(CCN(CC)CC)c2c1C.[Br-]
64 µg/mL

Given the compound CCN(CC)CCn1c2ccccc2c2ccnc(C)c21 , what is its reported MIC?
> 128 µg/mL

# lookup: MIC of Cc1c2c(cc[n+]1C)c1ccccc1n2CC[N+](C)(C)C.[I-].[I-]
> 128 µg/mL

State the recorded MIC for this entry: CC[n+]1ccc2c3ccccc3n(CC[N+](C)(C)CC)c2c1C.[Br-].[Br-]
> 128 µg/mL

Report MIC for CC[n+]1ccc2c3ccccc3n(CC[N+](CC)(CC)CC)c2c1C.[Br-].[Br-] please.
> 128 µg/mL

Requested field: MIC. Item: CCCCC[n+]1ccc2c3ccccc3n(CC[N+](C)(C)CCCCC)c2c1C.[Br-].[Br-]
> 128 µg/mL

Returns the measured MIC for the input compound. Input: Cc1nccc2c3ccccc3n(CCCCCCCn3c4ccccc4c4ccnc(C)c43)c12
> 128 µg/mL

Name the reported MIC value associated with the compound CCCC[n+]1ccc2c3ccccc3n(CCN(CC)CC)c2c1C.[Br-]
64 µg/mL

###

- Test system: Escherichia coli
- assay_text: Antibacterial activity against Escherichia coli ATCC 8739 incubated for 18 hrs by two fold serial broth dilution method
- Assay type: functional
MIC by entry:
Provide only the numeric value, understood in µg/mL.

CCN(CC)CCn1c2ccccc2c2ccnc(C)c21: 128
Cc1nccc2c3ccccc3n(CCN(C)C)c12: 64
Cc1c2c(cc[n+]1C)c1ccccc1n2CCCCCCCCn1c2ccccc2c2cc[n+](C)c(C)c21.[I-].[I-]: 8

Returns the measured MIC for the input compound. Input: Cc1nccc2c1[nH]c1ccccc12
8
